Source of measurements: PubChem BioAssay AID1996

So I've got a bunch of compounds here, and I need their solubility kinetic values.
# condition-set: buffer; pH 7.4; 200.0 µM

[
  {
    "structure-notation": "Cc1c(C)c2ccc(OCC(=O)Nc3ccccn3)cc2oc1=O",
    "solubility kinetic": "< 0.3 µg/mL"
  },
  {
    "structure-notation": "CNC(=O)CNC(=O)Nc1ccc(C)cc1",
    "solubility kinetic": "> 33.2 µg/mL"
  },
  {
    "structure-notation": "O=C(CN1C(=O)c2ccc([N+](=O)[O-])cc2C1=O)NCc1ccc(C(=O)O)cc1",
    "solubility kinetic": "> 57.5 µg/mL"
  },
  {
    "structure-notation": "O=C(NCCc1csc(-c2cccnc2)n1)c1c(F)cccc1F",
    "solubility kinetic": "48.9 µg/mL"
  },
  {
    "structure-notation": "Cc1ccc(S(=O)(=O)N2CCN(C(=O)CCC(=O)Nc3ccc(F)cc3F)CC2)cc1",
    "solubility kinetic": "> 67.7 µg/mL"
  }
]

Now let's try a different one.
Quick one: solubility kinetic of Cc1ccc2oc(C(=O)N(C)Cc3cnccn3)c(C)c2c1 ? > 44.3 µg/mL
